Test: Pharmacokinetic study, single-dose oral administration of tetrabenazine 25 mg to healthy adult male volunteers: plasma levels of tetrabenazine and DHTBZ isomers
Assay type: in vivo, human
Conditions: single-dose oral tetrabenazine 25 mg, fasting, N=08; unit not given
result_type: Kel
Simply state the number, no unit and no words.

Below: 3 molecules and their reported Kel.
COc1cc2c(cc1OC)[C@@H]1C[C@@H](O)[C@@H](CC(C)C)CN1CC2 [(−)-β-dihydrotetrabenazine] | 0.45
COc1cc2c(cc1OC)C1CC(=O)C(CC(C)C)CN1CC2 (racemic) [Tetrabenazine] | 0.19
COc1cc2c(cc1OC)[C@H]1C[C@H](O)[C@H](CC(C)C)CN1CC2 [(+)-β-dihydrotetrabenazine] | 0.13

If you can, please state the reported Kel value of COc1cc2c(cc1OC)[C@@H]1C[C@H](O)[C@@H](CC(C)C)CN1CC2 [(−)-α-dihydrotetrabenazine] .
0.10

Follow-up entry: COc1cc2c(cc1OC)[C@H]1C[C@@H](O)[C@H](CC(C)C)CN1CC2 [(+)-α-dihydrotetrabenazine]
0.17

Numbers sourced from patent US12521377B2.
